Tested on: MKN-7;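 note: growth inhibition of MKN-7 cells, read out with a cell viability assay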
Experiment: cells
Assay type: functional, cell-based
Details: Homo sapiens
Description: SANGER: Inhibition of human MKN7 cell growth in a cell viability assay.
pIC50: −log10 of the molar value.
Listed below: pIC50 values for each entry.

Query :: Provide pIC50 value for the following compound: CC1(C)CCC(c2ccc(Cl)cc2)=C(CN2CCN(c3ccc(C(=O)NS(=O)(=O)c4ccc(N[C@H](CCN5CCOCC5)CSc5ccccc5)c(S(=O)(=O)C(F)(F)F)c4)cc3)CC2)C1 [NAVITOCLAX]
Result :: < 5.70

Query :: Complete the entry with pIC50 for "OC[C@H](Cc1ccccc1)Nc1nc(Oc2ccc3c(c2)CCC3)nc2c1ncn2Cc1ccc(-c2ccccc2)cc1"
Result :: < 4.99

Shifting focus to the compound that follows.
Query :: Please give the documented pIC50 of CS(=O)(=O)N1CCN(Cc2cc3nc(-c4cccc5[nH]ncc45)nc(N4CCOCC4)c3s2)CC1 [PICTILISIB]
Result :: 5.57

* * *

The following compounds are listed with their measured IC50 values.
Tested on: BEN
Assay: cells
Format: functional, cell-based
Settings: Homo sapiens
Description: SANGER: Inhibition of human BEN cell growth in a cell viability assay.

Please review the following examples before continuing.
Query :: Find the measured IC50 of NC(=O)c1ccc(N(C(N)=O)c2c(F)cccc2F)nc1-c1ccc(F)cc1F [VX-702] and report it.
Result :: > 2 µM

Query :: Give a short answer stating reported IC50 for CO[C@@H]1[C@H](N(C)C(=O)c2ccccc2)C[C@H]2O[C@]1(C)n1c3ccccc3c3c4c(c5c6ccccc6n2c5c31)C(=O)NC4 [MIDOSTAURIN] .
Result :: > 0.512 µM

Continuing:
Query :: Look up and report measured IC50 for this entry: CN(C)CCOc1ccc(-c2nc(-c3ccncc3)c(-c3ccc4c(c3)CC/C4=N\O)[nH]2)cc1 [SB590885]
Result :: > 5 µM

Query :: Please give the documented IC50 of NC1(c2ccc(-c3nc4ccn5c(=O)[nH]nc5c4cc3-c3ccccc3)cc2)CCC1 [MK-2206]
Result :: > 4 µM

* * *

IC50 values, listed per item
Test system: PLC-PRF-5;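 note: growth inhibition of human PLC-PRF-5 cells, read out with a viability assay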
Test: cells
Assay type: functional, cell-based
Conditions: Homo sapiens
Description: SANGER: Inhibition of human PLC-PRF-5 cell growth in a cell viability assay.

Query :: Write down the reported IC50 (system: PLC-PRF-5) of "C/C(=C\c1csc(C)n1)[C@@H]1C[C@@H]2O[C@]2(C)CCC[C@H](C)[C@H](O)[C@@H](C)C(=O)C(C)(C)[C@@H](O)CC(=O)O1"
Result :: > 32 nM

Query :: Using PLC-PRF-5 as the test system, report measured IC50 of "OC[C@H](Cc1ccccc1)Nc1nc(Oc2ccc3c(c2)CCC3)nc2c1ncn2Cc1ccc(-c2ccccc2)cc1" .
Result :: > 10200 nM

Lab note: next compound to report on.
Query :: Give measured IC50 for "Cc1ccc(C(=O)Nc2ccc(CN3CCN(C)CC3)c(C(F)(F)F)c2)cc1C#Cc1cnc2cccnn12" (PLC-PRF-5).
Result :: > 512 nM

* * *

Test system: NOS-1
Test: cells
Format: functional, cell-based, Homo sapiens
Conditions: nos-1
Description: SANGER: Inhibition of human NOS-1 cell growth in a cell viability assay.
Where a SMILES comes first, the peptide text is derived from it. The star is where a group is joined. Cbz = O=C(OCc1ccccc1)*
Readout kind: IC50

Query :: Give NOS-1 IC50 for the following compound: CC(C)C[C@@H](C=O)NC(=O)[C@H](CC(C)C)NC(=O)[C@H](CC(C)C)NC(=O)OCc1ccccc1 [MG-132] (Cbz-Leu-Leu-Leu-aldehyde)
Result :: > 1000 nM
